Entry source: patent US6358491B1

Test system: AR42J tumor xenografts
measurement.protocol: Biodistribution of 99mTc-labeled compounds in nude mice with AR42J tumor xenografts
Format: in vivo
measurement.parameters: tumor to muscle ratio; 99mTc-labeled compound, 90 minutes post-injection
reported.endpoint: T:M
The reply should be a number, written without any unit.

Find the measured T:M of C[C@@H](O)[C@@H]1NC(=O)[C@H](CCCCN)NC(=O)[C@@H](Cc2c[nH]c3ccccc23)NC(=O)[C@H](Cc2ccc(O)cc2)NC(=O)[C@H](CCSCC(=O)NCCC[C@H](N)C(=O)NCC(=O)N[C@@H](CS)C(N)=O)N(C)C(=O)[C@H](Cc2ccccc2)NC1=O and report it.
95

Find the measured T:M of C[C@@H](O)[C@@H]1NC(=O)[C@H](CCCCN)NC(=O)[C@@H](Cc2c[nH]c3ccccc23)NC(=O)[C@H](Cc2ccc(O)cc2)NC(=O)[C@H](CCSCC(=O)NC[C@H](N)C(=O)N[C@@H](Cc2c[nH]cn2)C(=O)N[C@@H](CS)C(=O)N[C@H](CO)[C@@H](C)O)N(C)C(=O)[C@H](Cc2ccccc2)NC1=O and report it.
96

Find the measured T:M of C[C@@H](O)[C@@H]1NC(=O)[C@H](CCCCN)NC(=O)[C@@H](Cc2c[nH]c3ccccc23)NC(=O)[C@H](Cc2ccc(O)cc2)NC(=O)[C@H](CCSCC(=O)NC[C@H](N)C(=O)N[C@@H](Cc2ccc(N)cc2)C(=O)N[C@@H](CS)C(=O)N[C@H](CO)[C@@H](C)O)N(C)C(=O)[C@H](Cc2ccccc2)NC1=O and report it.
188

Find the measured T:M of C[C@@H](O)[C@@H]1NC(=O)[C@H](CCCCN)NC(=O)[C@@H](Cc2c[nH]c3ccccc23)NC(=O)[C@H](Cc2ccc(O)cc2)NC(=O)[C@H](CCSCC(=O)NC[C@H](N)C(=O)N[C@@H](CCN)C(=O)N[C@@H](CS)C(=O)NC(CO)CO)N(C)C(=O)[C@H](Cc2ccccc2)NC1=O and report it.
89

Find the measured T:M of C[C@@H](O)[C@H](NC(=O)CSCC[C@H]1C(=O)N[C@@H](Cc2ccc(O)cc2)C(=O)N[C@H](Cc2c[nH]c3ccccc23)C(=O)N[C@@H](CCCCN)C(=O)N[C@@H]([C@@H](C)O)C(=O)N[C@@H](Cc2ccccc2)C(=O)N1C)C(=O)NCC(=O)NCC(=O)N[C@@H](CS)C(N)=O and report it.
95

Find the measured T:M of C[C@@H](O)[C@@H]1NC(=O)[C@H](CCCCN)NC(=O)[C@@H](Cc2c[nH]c3ccccc23)NC(=O)[C@H](Cc2ccc(O)cc2)NC(=O)[C@H](CCSCC(=O)N[C@@H](CO)C(=O)N[C@@H](CO)C(=O)N[C@@H](CS)C(=O)NCCOCCOCCN)N(C)C(=O)[C@H](Cc2ccccc2)NC1=O and report it.
132

Find the measured T:M of C[C@@H](O)[C@@H]1NC(=O)[C@H](CCCCN)NC(=O)[C@@H](Cc2c[nH]c3ccccc23)NC(=O)[C@H](Cc2ccc(O)cc2)NC(=O)[C@H](CCSCC(=O)NC[C@H](N)C(=O)N[C@@H](CCCN)C(=O)N[C@@H](CS)C(=O)N[C@H](CO)[C@@H](C)O)N(C)C(=O)[C@H](Cc2ccccc2)NC1=O and report it.
96
